I'd appreciate it if you could supply Kd values for the items below.
# MEASUREMENT_TARGET: Ophiocordyceps sp. BRM1 eIF4A iso4 Gly172His
# ASSAY_INFO: Fluorescence polarization assay, FAM-labeled [AG]10 RNA and recombinant eIF4A
# Assay type: binding
# ASSAY_CONDITIONS: [AG]10 10 nM; ADP + Pi (1 mM each); compound 50 µM; read-out: Kd between eIF4A protein and RNA
Answers are plain numbers, in nM.

For every listed record, write down its Kd.
1. COc1ccc([C@@]23Oc4cc(OC)cc(OC)c4[C@]2(O)[C@H](O)[C@H](C(=O)N(C)C)[C@H]3c2ccccc2)cc1 [RocA, rocaglamide A]
2. COC(=O)[C@H]1[C@@H](O)[C@@]2(O)c3c(OC)cc(OC)cc3O[C@@]2(c2ccc(OC)cc2)[C@@H]1c1ccccc1 [Aglafoline, methyl rocaglate]

1: 3900; 2: 1500

###

# MEASUREMENT_TARGET: Ophiocordyceps sp. BRM1 eIF4A iso4 Gly172His
# ASSAY_INFO: Fluorescence polarization assay, FAM-labeled [AG]10 RNA and recombinant eIF4A
# Format: binding
# ASSAY_CONDITIONS: [AG]10 10 nM; AMP-PNP 1 mM; compound 50 µM; read-out: Kd between eIF4A protein and RNA
OBSERVATION_TYPE: pKd
Answers are plain numbers, as −log10 of the molar value.

Which pKd value belongs to COc1ccc([C@@]23Oc4cc(OC)cc(OC)c4[C@]2(O)[C@H](O)[C@H](C(=O)N(C)C)[C@H]3c2ccccc2)cc1 [RocA, rocaglamide A] ? 7.29

###

# MEASUREMENT_TARGET: Ophiocordyceps sp. BRM1 eIF4A iso4 WT Gly172
# ASSAY_INFO: Fluorescence polarization assay, FAM-labeled [AG]10 RNA and recombinant eIF4A
# Assay type: binding
# ASSAY_CONDITIONS: [AG]10 10 nM; AMP-PNP 1 mM; compound 50 µM; read-out: Kd between eIF4A protein and RNA
OBSERVATION_TYPE: Kd (nM)
Numbers only, in nM.

Which Kd value belongs to COc1ccc([C@@]23Oc4cc(OC)cc(OC)c4[C@]2(O)[C@H](O)[C@H](C(=O)N(C)C)[C@H]3c2ccccc2)cc1 [RocA, rocaglamide A] ? 230

###

# MEASUREMENT_TARGET: Ophiocordyceps sp. BRM1 eIF4A iso4 Gly172Phe
# ASSAY_INFO: Fluorescence polarization assay, FAM-labeled [AG]10 RNA and recombinant eIF4A
# Format: binding
# ASSAY_CONDITIONS: [AG]10 10 nM; AMP-PNP 1 mM; compound 50 µM; read-out: Kd between eIF4A protein and RNA
OBSERVATION_TYPE: Kd (nM)
Answers are plain numbers, in nM.

Which Kd value belongs to COc1ccc([C@@]23Oc4cc(OC)cc(OC)c4[C@]2(O)[C@H](O)[C@H](C(=O)N(C)C)[C@H]3c2ccccc2)cc1 [RocA, rocaglamide A] ? 53

###

# MEASUREMENT_TARGET: Ophiocordyceps sp. BRM1 eIF4A iso4 Gly172Phe
# ASSAY_INFO: Fluorescence polarization assay, FAM-labeled [AG]10 RNA and recombinant eIF4A
# Format: binding
# ASSAY_CONDITIONS: [AG]10 10 nM; ADP + Pi (1 mM each); compound 50 µM; read-out: Kd between eIF4A protein and RNA
I'd appreciate it if you could supply pKd values for the items below.
Numbers only, as −log10 of the molar value.

| COMPOUND | pKd |
| --- | --- |
| COc1ccc([C@@]23Oc4cc(OC)cc(OC)c4[C@]2(O)[C@H](O)[C@H](C(=O)N(C)C)[C@H]3c2ccccc2)cc1 [RocA, rocaglamide A] | 6.57 |

Now turn to the next compound.
Which pKd value belongs to COC(=O)[C@H]1[C@@H](O)[C@@]2(O)c3c(OC)cc(OC)cc3O[C@@]2(c2ccc(OC)cc2)[C@@H]1c1ccccc1 [Aglafoline, methyl rocaglate] ? 6.96

###

# MEASUREMENT_TARGET: Ophiocordyceps sp. BRM1 eIF4A iso4 WT Gly172
# ASSAY_INFO: Fluorescence polarization assay, FAM-labeled [AG]10 RNA and recombinant eIF4A
# Format: binding
# ASSAY_CONDITIONS: [AG]10 10 nM; ADP + Pi (1 mM each); compound 50 µM; read-out: Kd between eIF4A protein and RNA
OBSERVATION_TYPE: pKd
Numbers only, as −log10 of the molar value.

Observed pKd on Ophiocordyceps sp. BRM1 eIF4A iso4 WT Gly172 for COC(=O)[C@H]1[C@@H](O)[C@@]2(O)c3c(OC)cc(OC)cc3O[C@@]2(c2ccc(OC)cc2)[C@@H]1c1ccccc1 [Aglafoline, methyl rocaglate] , please. 5.59
